# credit: paper PMC12431657

Form field: OC43 Inhibition rate (one value per entry).
# Test system: HCoV-OC43
# Parameters: species or system RD; HTS, protection from HCoV-OC43 induced cell death, luminescent cell viability (CellCounting-Lite 2.0), inhibition rate
# Assay Conditions: 24 h post infection, 1 h compound pre-incubation; 10 µM; inhibitor
The whole screen tested about 3,300 compounds, of which about 60 (2%) showed an effect of 50% or more. The list comes from a sample in which strong results are over-represented; it also holds close analogues and randomly drawn compounds.
Assay Endpoint: OC43 Inhibition rate (%)

INSERT INTO results (compound, assay_endpoint, unit_tag, reported_result) VALUES
  ('O[C@H]1[C@H]2c3cc4c(cc3CN3CCC(=C[C@@H]1O)[C@H]23)OCO4 [Lycorine]', 'OC43 Inhibition rate', '%', 60.9),
  ('COc1cc2c(cc1OC)-c1cc3ccc4c(c3c(=O)n1CC2)OCO4 [8-Oxoepiberberine]', 'OC43 Inhibition rate', '%', 10.1),
  ('C=C1C(=O)O[C@H]2C[C@@H](C)[C@@H]3CCC(=O)[C@@]3(C)[C@@H](OC(C)=O)[C@H]12 [Ergolide]', 'OC43 Inhibition rate', '%', 10.6),
  ('CC(C)=CCc1cc(-c2coc3cc(O)ccc3c2=O)ccc1O [Neobavaisoflavone]', 'OC43 Inhibition rate', '%', 18.1),
  ('c1cc2c(c3c1CC1c4cc5c(cc4CCN1C3)OCO5)OCO2 (racemic) [(±)-Stylopine]', 'OC43 Inhibition rate', '%', -0.3),
  ('CC(C)=CCC[C@](C)(O)[C@H]1CC[C@]2(C)[C@@H]1[C@H](O)C[C@@H]1[C@@]3(C)CC[C@H](O)C(C)(C)[C@@H]3[C@@H](O[C@@H]3O[C@H](CO)[C@@H](O)[C@H](O)[C@H]3O[C@@H]3OC[C@@H](O)[C@H](O)[C@H]3O)C[C@]12C [Notoginsenoside R2]', 'OC43 Inhibition rate', '%', 0.5),
  ('O[C@H]1[C@H]2c3cc4c(cc3CN3CC[C@H](C[C@@H]1O)[C@H]23)OCO4 [Dihydrolycorine]', 'OC43 Inhibition rate', '%', 0),
  ('COc1c2c(cc3oc(C)cc(=O)c13)OC(C(C)(C)O[C@@H]1O[C@H](CO)[C@@H](O)[C@H](O)[C@H]1O)C2 (stereo partly drawn) [5-O-Methylvisammioside]', 'OC43 Inhibition rate', '%', 0.3),
  ('CC1(C)CCC[C@]2(C)[C@H]3CCO[C@]3(C)CC[C@@H]12 [Ambroxide]', 'OC43 Inhibition rate', '%', -0.5);
